Reference source for all entries: patent US20260374773A1

- System name: IRAK1 (Homo sapiens, UniProt P51617)
- Sequence (P51617 whole entry): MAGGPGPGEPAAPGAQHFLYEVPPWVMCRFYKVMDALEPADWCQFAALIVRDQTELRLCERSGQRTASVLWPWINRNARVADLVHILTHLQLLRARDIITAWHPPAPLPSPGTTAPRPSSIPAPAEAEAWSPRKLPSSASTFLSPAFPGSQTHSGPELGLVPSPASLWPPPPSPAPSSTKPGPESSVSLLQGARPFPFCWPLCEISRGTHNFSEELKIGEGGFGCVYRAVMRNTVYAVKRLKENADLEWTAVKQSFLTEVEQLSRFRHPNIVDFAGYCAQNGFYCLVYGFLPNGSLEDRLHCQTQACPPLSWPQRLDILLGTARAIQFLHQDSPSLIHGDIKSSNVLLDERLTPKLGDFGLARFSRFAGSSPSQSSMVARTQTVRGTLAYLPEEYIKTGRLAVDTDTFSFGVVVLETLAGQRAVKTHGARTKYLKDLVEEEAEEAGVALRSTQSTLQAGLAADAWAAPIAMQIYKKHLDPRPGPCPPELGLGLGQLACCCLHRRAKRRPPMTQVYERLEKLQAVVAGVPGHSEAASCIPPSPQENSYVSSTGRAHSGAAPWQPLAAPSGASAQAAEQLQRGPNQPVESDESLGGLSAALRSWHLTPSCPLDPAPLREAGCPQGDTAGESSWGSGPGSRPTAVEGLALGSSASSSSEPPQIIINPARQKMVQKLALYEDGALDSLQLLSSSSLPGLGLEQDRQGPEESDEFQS
- Protocol description: RBC HotSpot kinase inhibition assay, IRAK1
- Type: biochemical
- Measurement setup: Table 11; isolated kinase, 33P-ATP, 2 h
Let's look at some compounds and their measured IC50.
Give just the numeric value; nM need not be written.

F[C@H]1CNC[C@@H]1Nc1cccc(-c2cnn3cc(Cl)cnc23)n1; 6220
COc1cn2ncc(-c3nc(N[C@@H]4CCCNC4)ccc3F)c2nc1C1CC1; 4
COc1cn2ncc(-c3nc(N[C@H]4CNCC[C@@H]4F)c(C#N)cc3F)c2nc1C(C)(C)O; 2

Consider the additional compound presented here.
Note to self: IC50 recorded for "COc1cn2ncc(-c3nc(N[C@H]4CNCC[C@@H]4F)c(F)cc3F)c2nc1C(C)(C)O" was 7

* * *

Let's look at some compounds and their measured Kd.
- System name: IRAK4 (Homo sapiens, UniProt Q9NWZ3)
- Protocol description: DiscoverX KINOMEscan active site-directed competition binding, IRAK4
- Measurement setup: Table 18; no ATP

Some compounds with recorded Kd:
COc1cn2ncc(-c3cncc(N[C@H]4CNCC[C@@H]4F)n3)c2nc1C1CC1 [Compound 12a]; < 0.17 nM
COc1cn2ncc(-c3nc(N[C@H]4CNCC[C@@H]4F)ncc3F)c2nc1C1CC1 [Compound 15a]; < 0.17 nM

Consider the additional compound presented here.
Note to self: Kd recorded for COc1cn2ncc(-c3nc(N[C@@H]4CCCNC4)ncc3F)c2nc1C1CC1 [Compound 14a] was < 0.17 nM

* * *

- System name: UniProt P36888
- Sequence (P36888 27-993): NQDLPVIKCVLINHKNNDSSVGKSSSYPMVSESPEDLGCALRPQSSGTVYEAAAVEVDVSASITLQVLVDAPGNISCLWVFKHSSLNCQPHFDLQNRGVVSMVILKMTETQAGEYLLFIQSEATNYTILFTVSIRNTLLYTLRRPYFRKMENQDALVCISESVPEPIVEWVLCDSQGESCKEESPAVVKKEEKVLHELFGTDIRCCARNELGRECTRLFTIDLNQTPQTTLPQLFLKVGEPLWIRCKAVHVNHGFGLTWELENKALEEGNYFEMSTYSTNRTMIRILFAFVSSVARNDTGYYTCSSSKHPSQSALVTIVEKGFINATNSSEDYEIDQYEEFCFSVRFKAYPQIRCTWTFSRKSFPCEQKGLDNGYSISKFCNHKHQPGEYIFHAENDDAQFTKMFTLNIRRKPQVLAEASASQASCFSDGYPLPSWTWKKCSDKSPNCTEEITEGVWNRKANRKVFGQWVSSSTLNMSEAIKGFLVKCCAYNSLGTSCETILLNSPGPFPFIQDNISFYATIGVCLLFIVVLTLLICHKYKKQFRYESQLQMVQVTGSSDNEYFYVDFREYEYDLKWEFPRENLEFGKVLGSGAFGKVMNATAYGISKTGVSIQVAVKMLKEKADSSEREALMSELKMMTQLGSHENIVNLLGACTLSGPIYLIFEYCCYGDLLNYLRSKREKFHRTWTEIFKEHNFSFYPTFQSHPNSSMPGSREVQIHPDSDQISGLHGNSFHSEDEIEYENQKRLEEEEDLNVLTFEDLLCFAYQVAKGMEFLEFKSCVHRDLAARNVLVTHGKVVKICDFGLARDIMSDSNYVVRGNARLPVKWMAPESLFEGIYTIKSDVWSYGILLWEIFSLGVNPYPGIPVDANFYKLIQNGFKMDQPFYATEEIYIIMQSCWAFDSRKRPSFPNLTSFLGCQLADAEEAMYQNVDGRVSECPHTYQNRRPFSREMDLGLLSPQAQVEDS
- Protocol description: RBC HotSpot kinase inhibition assay, FLT3
- Assay type: biochemical
- Measurement setup: Table 11; isolated kinase, 33P-ATP, 2 h
- Description: This assay uses the isolated kinase enzyme. This assay is very useful for determining competition of the inhibitor for ATP and/or substrates and for measuring the kinetics of enzyme inhibition. […] Unlike kinase binding assays that measure competition for ATP, the HotSpot Kinase Assay is a functional assay that measures catalytic activity; as such it measures relative functional potency regardless of the mechanism of enzyme inhibition. […]
Let's look at some compounds and their measured IC50.

Some compounds with recorded IC50:
COc1cn2ncc(-c3nc(N[C@H]4CNC[C@@H]4F)ccc3F)c2nc1C1CC1 [Compound 1]; < 0.5 nM
COc1cn2ncc(-c3nc(N[C@@H]4CCCNC4)c(C#N)cc3F)c2nc1C1CC1 [Compound 8]; < 0.5 nM
COc1cn2ncc(-c3nc(N[C@@H]4CCCNC4)ccc3F)c2nc1C1CC1 [Compound 2]; < 0.5 nM
COc1cn2ncc(-c3nc(N[C@H]4CNCC[C@@H]4F)c(C#N)cc3F)c2nc1C(C)(C)O [Compound 10]; < 0.5 nM
COc1cn2ncc(-c3nc(N[C@@H]4CCCNC4)c(F)cc3F)c2nc1C1CC1 [Compound 23]; < 0.5 nM
F[C@H]1CNC[C@@H]1Nc1cccc(-c2cnn3cc(Cl)cnc23)n1 [Compound 14]; 32 nM
COc1cn2ncc(-c3nc(N[C@H]4CNC[C@@H]4F)c(F)cc3F)c2nc1C1CC1 [Compound 24]; < 0.5 nM
FC(F)COc1cnc2c(-c3cccc(N[C@H]4CNC[C@@H]4F)n3)cnn2c1 [Compound 16]; 4 nM

Note to self: IC50 recorded for CC(C)Oc1cnc2c(-c3cccc(N[C@H]4CNC[C@@H]4F)n3)cnn2c1 [Compound 17] was 19 nM

Note to self: IC50 recorded for COc1cn2ncc(-c3nc(N[C@H]4CNCC[C@@H]4F)c(F)cc3F)c2nc1C(C)(C)O [Compound 13] was < 0.5 nM

* * *

Let's look at some molecules and their measured pIC50.
- System name: IRAK4 (Homo sapiens)
- Sequence (Q9NWZ3 1-460): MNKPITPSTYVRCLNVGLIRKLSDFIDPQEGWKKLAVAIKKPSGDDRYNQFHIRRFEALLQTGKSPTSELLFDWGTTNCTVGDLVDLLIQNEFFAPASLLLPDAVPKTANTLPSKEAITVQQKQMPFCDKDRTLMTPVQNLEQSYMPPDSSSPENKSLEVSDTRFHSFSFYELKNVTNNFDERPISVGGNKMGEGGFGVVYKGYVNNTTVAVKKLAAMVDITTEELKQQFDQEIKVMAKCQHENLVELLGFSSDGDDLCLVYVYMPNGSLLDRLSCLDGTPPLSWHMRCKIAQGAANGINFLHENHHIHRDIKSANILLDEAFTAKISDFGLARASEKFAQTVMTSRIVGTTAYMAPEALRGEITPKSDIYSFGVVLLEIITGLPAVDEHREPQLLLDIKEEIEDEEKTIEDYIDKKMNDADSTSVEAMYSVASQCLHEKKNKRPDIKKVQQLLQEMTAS
- Protocol description: RBC HotSpot kinase inhibition assay, IRAK4
- Type: biochemical
- Measurement setup: Table 11; isolated kinase, 33P-ATP, 2 h
Scale explanation: pIC50 corresponds to minus log10 of a concentration expressed in moles per litre.

F[C@H]1CNC[C@@H]1Nc1cccc(-c2cnn3cc(C4CC4)cnc23)n1 [Compound 15]; 6.57
COc1cn2ncc(-c3cccc(N[C@H]4CNC[C@@H]4F)n3)c2nc1C1CC1 [Compound 19]; 8.70
COc1cn2ncc(-c3cccc(N[C@H]4CNCC[C@@H]4F)n3)c2nc1C1CC1 [Compound 21]; 8.70
CC(C)Oc1cnc2c(-c3cccc(N[C@H]4CNC[C@@H]4F)n3)cnn2c1 [Compound 17]; 6.53
COc1cnc2c(-c3cccc(N[C@H]4CNC[C@@H]4F)n3)cnn2c1 [Compound 18]; 7.14

Consider the additional molecule presented here.
Note to self: pIC50 recorded for COc1cn2ncc(-c3nc(N[C@@H]4CCCNC4)c(F)cc3F)c2nc1C(C)(C)O [Compound 11] was 9.00

* * *

- System name: FLT3 (Homo sapiens, UniProt P36888)
- Protocol description: NanoBRET target engagement assay in HEK-293 cells, FLT3
- Format: cell-based
- Measurement setup: Table 20; live HEK-293 cells, 1 h
pIC50: −log10 of the molar value.
Assign True whenever pIC50 does not fall below 8; assign False whenever it does.

COc1cn2ncc(-c3cncc(N[C@H]4CNCC[C@@H]4F)n3)c2nc1C1CC1 [Compound 12a]; True
COc1cn2ncc(-c3nc(N[C@@H]4CCCNC4)ncc3F)c2nc1C(C)(C)O; False

Say whether COc1cn2ncc(-c3nc(N[C@H]4CNC[C@@H]4F)ncc3F)c2nc1C1CC1 [Compound 13a] shows pIC50 of 8 or more.
True

Say whether COc1cn2ncc(-c3nc(N[C@H]4CNCC[C@@H]4F)ncc3F)c2nc1C1CC1 [Compound 15a] shows pIC50 of 8 or more.
True

Say whether COc1cn2ncc(-c3nc(N[C@@H]4CCCNC4)ncc3F)c2nc1C1CC1 [Compound 14a] shows pIC50 of 8 or more.
True

* * *

- System name: IRAK1 (Homo sapiens)
- Protocol description: RBC HotSpot kinase inhibition assay, IRAK1
- Format: biochemical
- Measurement setup: Table 17; isolated kinase, 33P-ATP, 2 h
Metric: pIC50
Scale explanation: pIC50 corresponds to minus log10 of a concentration expressed in moles per litre.

Some compounds with recorded pIC50:
COc1cn2ncc(-c3cncc(N[C@@H]4CCCNC4)n3)c2nc1C1CC1 [Compound 11a]; 7.82
COc1cn2ncc(-c3cncc(N[C@H]4CNC[C@@H]4F)n3)c2nc1C1CC1 [Compound 10a]; 8.22
COc1cn2ncc(-c3ccnc(N[C@H]4CNCC[C@@H]4F)n3)c2nc1C1CC1; 8.10
COc1cn2ncc(-c3cncc(N[C@H]4CNCC[C@@H]4F)n3)c2nc1C1CC1 [Compound 12a]; 8.22
COc1cn2ncc(-c3ccnc(N[C@H]4CNC[C@@H]4F)n3)c2nc1C1CC1; 8.05

Note to self: pIC50 recorded for "COc1cn2ncc(-c3nc(N[C@H]4CNC[C@@H]4F)ncc3F)c2nc1C(C)(C)O" was 8.22
